experiment: release kinetics: t1/2 for cleavage with release of the PHOTO moiety in alkaline solution; format: physicochemical; settings: 1×10^-4 molar, 30% acetonitrile/0.25N aqueous potassium hydroxide, 22°+0.1° C.; 100 µM
observation-type: t1/2 (s)

[a] ON=C(CSc1nnnn1-c1ccccc1)CSc1nnnn1-c1ccccc1
[b] COc1ccc(C(CSc2nnnn2-c2ccccc2)=NO)cc1
[in] Hello, I am sorting some records. Could you say if a or b has the smaller t1/2 value? Please reply using the label of the selected record.
[out] b
(b: 4.3 s, a: 8.9 s)

###

experiment: release kinetics: t1/2 for cleavage with release of the PHOTO moiety in alkaline solution; assay type: physicochemical; conditions: 1×10^-4 molar, 30% acetonitrile/0.25N aqueous potassium hydroxide, 22°+0.1° C.; 100 µM
observation-type: t1/2 (s)

Example cases with answers are listed next.
compound-string | unit-of-measurement | measurement
NC(CSc1nnnn1-c1ccccc1)=NO | s | 546.0
ON=C(CSc1nnnn1-c1ccc(O)cc1)CSc1nnnn1-c1ccc(O)cc1 | s | 51.1
Cc1ccc(S(=O)(=O)NN=C(CSc2nnnn2-c2ccccc2)c2ccccc2)cc1 | s | 165.0
CS(=O)(=O)Nc1ccc(C(CSc2nnnn2-c2ccccc2)=NO)cc1 | s | 7.6
CC(CSc1nnnn1-c1ccc(O)cc1)=NO | s | 40.5

[A] CC(CSc1nnnn1-c1ccccc1)=NO
[B] ON=CCSc1nnnn1-c1ccccc1
[in] Identify the item whose t1/2 is the smaller number: A or B Please reply using the label of the selected record.
[out] A
